Please go through the items and note down their DC50.
target: VAV1 (Homo sapiens, UniProt P15498+Q96SW2); construct: A heterozygous VAV1 C-terminal HiBiT knock-in pool was generated at Monte Rosa Therapeutics from a clonal Jurkat cell; endogenous in cells; host or cells: Jurkat clone stably expressing LgBiT, homozygous GSPT1-G575N; heterozygous VAV1-HiBiT knock-in pool; assay: VAV1 degradation activity, VAV1-HiBiT knock-in Jurkat luminescence assay (Example A, Table 1); format: cell-based; conditions: VAV1-HiBiT knock-in Jurkat cells, luminescence read at 6 and 24 hours; read-out: VAV1 DC50
Sequence (P15498 whole entry): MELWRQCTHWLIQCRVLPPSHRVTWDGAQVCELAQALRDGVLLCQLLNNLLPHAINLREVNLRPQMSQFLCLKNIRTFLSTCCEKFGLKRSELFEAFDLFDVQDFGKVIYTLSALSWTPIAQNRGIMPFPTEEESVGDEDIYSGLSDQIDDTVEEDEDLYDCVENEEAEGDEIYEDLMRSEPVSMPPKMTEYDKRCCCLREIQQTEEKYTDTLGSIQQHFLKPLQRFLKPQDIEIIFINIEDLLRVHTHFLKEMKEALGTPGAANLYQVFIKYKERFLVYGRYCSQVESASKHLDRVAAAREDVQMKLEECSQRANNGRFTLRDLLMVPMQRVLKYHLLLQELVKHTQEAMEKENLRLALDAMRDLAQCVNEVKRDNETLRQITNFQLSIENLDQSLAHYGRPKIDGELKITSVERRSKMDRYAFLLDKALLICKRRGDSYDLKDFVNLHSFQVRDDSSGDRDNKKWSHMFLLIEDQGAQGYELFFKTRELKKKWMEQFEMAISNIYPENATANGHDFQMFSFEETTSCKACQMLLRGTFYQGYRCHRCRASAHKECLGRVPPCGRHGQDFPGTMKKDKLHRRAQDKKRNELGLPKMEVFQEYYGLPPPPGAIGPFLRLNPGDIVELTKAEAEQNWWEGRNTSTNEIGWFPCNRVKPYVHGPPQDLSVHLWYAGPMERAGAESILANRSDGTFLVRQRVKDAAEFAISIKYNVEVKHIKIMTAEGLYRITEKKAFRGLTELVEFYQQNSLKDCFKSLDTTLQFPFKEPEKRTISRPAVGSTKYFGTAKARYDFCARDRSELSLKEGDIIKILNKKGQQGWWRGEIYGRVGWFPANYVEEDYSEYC
Sequence (Q96SW2 whole entry): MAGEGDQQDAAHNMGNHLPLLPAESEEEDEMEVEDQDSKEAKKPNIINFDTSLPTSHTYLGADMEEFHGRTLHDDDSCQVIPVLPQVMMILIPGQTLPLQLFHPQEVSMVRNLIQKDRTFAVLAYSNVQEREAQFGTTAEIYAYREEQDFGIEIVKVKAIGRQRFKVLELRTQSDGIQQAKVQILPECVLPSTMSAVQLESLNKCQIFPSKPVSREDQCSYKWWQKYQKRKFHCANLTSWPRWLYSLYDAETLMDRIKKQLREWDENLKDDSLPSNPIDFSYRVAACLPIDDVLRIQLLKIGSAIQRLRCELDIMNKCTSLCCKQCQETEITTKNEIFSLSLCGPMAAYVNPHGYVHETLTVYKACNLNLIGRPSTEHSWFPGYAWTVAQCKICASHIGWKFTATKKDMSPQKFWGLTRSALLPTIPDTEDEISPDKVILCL
Sequence (Q16531 whole entry partner): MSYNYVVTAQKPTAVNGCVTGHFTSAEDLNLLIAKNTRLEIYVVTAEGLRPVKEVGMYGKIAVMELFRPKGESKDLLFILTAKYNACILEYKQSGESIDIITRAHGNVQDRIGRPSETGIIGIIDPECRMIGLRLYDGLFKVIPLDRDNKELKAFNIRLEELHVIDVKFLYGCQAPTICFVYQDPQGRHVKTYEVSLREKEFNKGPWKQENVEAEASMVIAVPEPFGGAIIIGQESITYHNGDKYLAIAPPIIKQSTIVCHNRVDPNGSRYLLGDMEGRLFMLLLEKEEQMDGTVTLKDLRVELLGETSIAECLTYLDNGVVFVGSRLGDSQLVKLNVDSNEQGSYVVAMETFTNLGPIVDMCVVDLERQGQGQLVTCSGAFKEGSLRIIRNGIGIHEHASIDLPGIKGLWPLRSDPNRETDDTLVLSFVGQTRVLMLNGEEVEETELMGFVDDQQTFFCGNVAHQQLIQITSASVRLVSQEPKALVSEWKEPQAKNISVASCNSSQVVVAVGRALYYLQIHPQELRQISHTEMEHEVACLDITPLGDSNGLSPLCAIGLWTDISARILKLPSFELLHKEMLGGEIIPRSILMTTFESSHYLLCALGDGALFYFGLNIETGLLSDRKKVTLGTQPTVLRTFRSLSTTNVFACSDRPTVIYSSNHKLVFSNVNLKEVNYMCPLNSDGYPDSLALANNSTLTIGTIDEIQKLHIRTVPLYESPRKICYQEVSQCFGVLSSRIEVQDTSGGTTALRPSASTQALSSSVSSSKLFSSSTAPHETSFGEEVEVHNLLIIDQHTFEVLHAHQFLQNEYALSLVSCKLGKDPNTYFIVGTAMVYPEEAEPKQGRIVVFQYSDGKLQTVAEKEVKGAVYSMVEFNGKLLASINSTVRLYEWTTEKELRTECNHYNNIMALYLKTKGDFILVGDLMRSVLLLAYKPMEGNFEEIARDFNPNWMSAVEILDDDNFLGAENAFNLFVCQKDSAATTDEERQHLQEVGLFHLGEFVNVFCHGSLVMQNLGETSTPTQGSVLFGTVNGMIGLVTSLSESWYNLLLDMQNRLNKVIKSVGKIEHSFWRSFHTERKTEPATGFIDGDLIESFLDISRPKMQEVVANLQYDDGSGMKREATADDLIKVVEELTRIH
Give just the numeric value; nM need not be written.

Would you mind telling me what DC50 value was observed for O=C1CCC(c2cccc(-c3ccc(N4CCCCS4(=O)=O)cc3)c2Cl)C(=O)N1 (stereo not shown) ?
104

Would you kindly repeat that for Cc1nc(Cc2ccc(-c3cccc(C4CCC(=O)NC4=O)c3Cl)cc2)no1 (stereo not shown) ?
9.34

Would you kindly repeat that for CN1CCC(C)(C)N(c2ccc(-c3cccc(C4CCC(=O)NC4=O)c3Cl)cc2)C1=O (stereo not shown) ?
1.56

Would you kindly repeat that for O=C1CCC(c2cccc(-c3ccc(C4(n5ccccc5=O)CC4)cc3)c2Cl)C(=O)N1 (stereo not shown) ?
920

Would you kindly repeat that for O=C1CCC(c2cccc(-c3ccc(N4C(=O)CCCC45CC5)c(F)c3)c2Cl)C(=O)N1 (stereo not shown) ?
7.18

Would you kindly repeat that for COc1cc(OC(F)F)ccc1-c1cccc(C2CCC(=O)NC2=O)c1Cl (stereo not shown) ?
7440

Would you kindly repeat that for O=C1CCC(c2cccc(-c3ccc(N4CCn5ccnc5C4=O)cc3)c2Cl)C(=O)N1 (stereo not shown) ?
39.4

Would you kindly repeat that for O=C1CCC(c2cccc(-c3ccc(Cc4ncccn4)nc3)c2Cl)C(=O)N1 (stereo not shown) ?
77

Would you kindly repeat that for Cn1ccc(OCc2ccc(-c3cccc(C4CCC(=O)NC4=O)c3Cl)cc2)n1 (stereo not shown) ?
18.5

Would you kindly repeat that for O=C1CCC(c2cccc(-c3ccc(OCc4ccccn4)cc3)c2Cl)C(=O)N1 (stereo not shown) ?
45.4

Would you kindly repeat that for O=C1CCC(c2cccc(-c3ccc(N4CCCOC4=O)cc3)c2Cl)C(=O)N1 (stereo not shown) ?
12.2

Would you kindly repeat that for COC1CCCC(=O)N1Cc1ccc(-c2cccc(C3CCC(=O)NC3=O)c2Cl)cc1 (stereo not shown) ?
50.9

Would you kindly repeat that for O=C1CCC(c2cccc(-c3ccc(N4CCCCC4)cc3)c2Cl)C(=O)N1 (stereo not shown) ?
122

Would you kindly repeat that for O=C1CC[C@H](c2cccc(-c3ccc(-n4ccccc4=O)cc3)c2Cl)C(=O)N1 ?
40.9

Would you kindly repeat that for COc1cc(-c2cccc(C3CCC(=O)NC3=O)c2Cl)ccc1C (stereo not shown) ?
475
